# maps each entry to its inhibition
Assay: inhibitors of TNFa-induced NFkB p65 translocation, primary screen, imaging, HUVEC, MLSMR starter and 10KST1 sets (AID 438);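 note: compound added about 3h40 before a 20 min TNFalpha stimulation; signal is the nuclear over cytoplasmic p65 intensity ratio per well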
Details: HUVEC TNFa-induced p65 nuclear translocation; at 2 µM, active compounds read high, 0% TNFa-plus-vehicle, 100% no-TNFa wells
attribute_measured: inhibition (%)

- Cn1c(Cn2cnc3ccccc32)nc2ccccc21: 0.2
- CC1CCCCN1CCNS(=O)(=O)c1ccc2c(c1)oc(=O)n2C (stereo not drawn): 0.3
- CCSc1nnc(NC(=O)C2CCCN(S(=O)(=O)c3cnc[nH]3)C2)s1 (stereo not drawn): -0.5
- COc1ccc(OC)c(NC(=O)C2C3CC4OC(=O)C2C4C3)c1 (stereo not drawn): -5.7
- CCN(CC)c1ccc(NC(=O)CN2CCN(CC(=O)Nc3ccccc3F)CC2)cc1: 3.1
- O=C(CN1C(=O)c2ccccc2S1(=O)=O)NCc1ccccn1: 0
- CCC(NC(=O)NC1=NCCS1)(C(F)(F)F)C(F)(F)F: 2.9
- COc1ccc(Cc2nnc(NC(=O)Cc3cccs3)s2)cc1: -27.6
- CCOC(=O)CSc1nnc(NCC(=O)OC(C)C)c(=O)[nH]1: 7.2
- O=C1c2cccnc2C(=O)N1c1cccc(-c2nc3ccccc3o2)c1: 9.1
- CCCSc1nnc2n(Cc3ccccc3)c(=O)c3c4c(sc3n12)CCC4: -0.7
- Cc1ccc(C2=N/C(=C/N3CCOCC3)C(=O)O2)cc1: 3.3
- O=C1OCc2cc(NC(=O)C3CCCO3)ccc21 (stereo not drawn): -8.1
- COC(=O)c1cc(-c2c(C)oc3cc(O)ccc3c2=O)c(C)o1: -2.2
- O=C(O)c1ccc2c(c1)N(Cc1ccccc1F)C(=O)c1ccccc1S2=O (stereo not drawn): -1.2
- COc1ccc(Cl)cc1N1CC(c2nc3ccccc3[nH]2)CC1=O (stereo not drawn): 1.4
- CN1CCc2c(c3c(n2C)CCN(C)[C@@H]3c2cccnc2)[C@H]1c1cccnc1: -15.1
- CN1CCc2c(sc3c2c(=O)n(-c2cccc(Cl)c2)c2nncn32)C1: 13.9
- CC(C)(C)OC(=O)NCCc1nnc(SCC(=O)c2ccc(Cl)cc2)o1: -3.2
- Cc1ccccc1-n1c(=O)cc(NCc2ccc3c(c2)OCO3)[nH]c1=O: 1.6
- O=C(C1CCN(C2CC(=O)N(c3ccc(F)cc3)C2=O)CC1)N1CCOCC1 (stereo not drawn): 6.1
- COC(=O)NCC12CC3CC(C1)CC(CNC(=O)OC)(C3)C2: 2.3
- Cc1ccc(Oc2nc3c(c(=O)n(Cc4ccccc4F)c(=O)n3C)n2C)cc1: 2.1
- COc1ccc(N2CCN(C(=O)C(OC(C)=O)c3ccccc3)CC2)cc1 (stereo not drawn): -4.7
- Cc1ccc(NC(=O)CN(C)S(=O)(=O)c2cccc3nsnc23)cc1Cl: -16.4
- COc1ccc(C2/C(=C(\O)c3ccc4c(c3)OCCO4)C(=O)C(=O)N2CCCN(C)C)cc1 (stereo not drawn): -2.4
- CC(=O)c1cccc(S(=O)(=O)N2CCC(n3nnc4cc(F)ccc43)CC2)c1: 2.7
- N#CC1=C(SCC(=O)NC23CC4CC(CC(C4)C2)C3)NC(=O)C(C#N)C12CCCCC2 (stereo not drawn): -9.3
- COc1ccc(-c2nc(C#N)c(N3CCN(c4ccccc4)CC3)o2)cc1: 1.4
- COc1ccc(C(C)=O)c(OC(=O)c2ccc(OC)c(OC)c2)c1: -0.3
- Cc1ccc(-c2nn(-c3ccccc3)cc2CN(Cc2ccccc2)C(=O)CCC(=O)O)o1: 7.1
- O=C(Nc1ccccn1)c1ccc(=O)[nH]n1: 4.2
- Cc1nc(NC(=O)c2ccccc2)sc1-c1csc(NCc2ccco2)n1: -2.4
- O=C(NCCCN1CCCC1=O)c1ccc2c(=O)n(Cc3ccco3)c(=S)[nH]c2c1: -16.6
- Cc1ccc(Cn2c(NCCc3ccccc3)nc3c2c(=O)n(C)c(=O)n3C)cc1: 6.8
- CCCNc1ncnc2c1cnn2-c1ccc(OC)cc1: -12.5
- CCOC(=O)CSc1nc(N2CCOCC2)c2c(c1C#N)CC(C)(C)N(C)C2: -4.6
- O=c1[nH]c2sc3c(c2c(=O)n1Cc1ccccc1)CCC3: -2.5
